Tested on: PC-3 prostate
Assay: NCI-60 one-dose screen, 48 h
Settings: 10 µM unless noted
The panel holds about 83,000 compounds, 20% with a hit somewhere; the sample as a whole holds those more often. The source made the active and inactive calls. How the source made its calls: active means growth percent below 10; inactive means the rest.
Your answer must be one of the following: active, inactive

Reference set (5 entries):
input: Field: outcome | Entry: COc1ccc(N2C(=O)C(Oc3ccccc3)C2c2ccc(C)cc2)cc1 (centres undefined)
output: inactive

input: Field: outcome | Entry: Cc1ccc(/C=C(\C#N)n2nc3cccc(F)c3n2)cc1
output: inactive

input: Field: outcome | Entry: Oc1ccc(-c2nc3ccc4[nH]ncc4c3c3c2CCCC3)c2cccnc12
output: active

input: Field: outcome | Entry: COc1cc(/C=C/C(=O)/C=C/c2cc(OC)c3c(c2OC)OCO3)c(OC)c2c1OCO2
output: inactive

input: Field: outcome | Entry: Cc1cc2[nH]c(=O)c3c4ncccc4cn3c2cc1C
output: inactive

Others:
input: Field: outcome | Entry: Cn1cc(-c2cc3ncnc(Nc4ccc(CC(=O)Nc5cc(C(C)(C)C)on5)cc4)c3s2)cn1
output: inactive

input: Field: outcome | Entry: CSc1nc2ccc(C)cc2cc1/C=N/O
output: inactive

input: Field: outcome | Entry: Clc1ccc(C(/C=C/c2sc(Cl)nc2Cl)=N/Nc2cc(Cl)cc(Cl)c2)cc1
output: inactive

input: Field: outcome | Entry: CC1(C)C2CC1C1(/C=N/NC(N)=S)C(C2)C(C#N)(C#N)C1(C#N)C#N (centres undefined)
output: inactive
